Where a SMILES comes first, the peptide text is derived from it.
# Lookup of reported logP keyed by entry
ENDPOINT: logP

[
  {
    "MOLECULE": "C#CCN(N=O)C(=O)NCCCC(NC(C)=O)C(=O)NCc1ccccc1 (configuration not stated)",
    "REPORTED_MEASUREMENT": 1.12
  },
  {
    "MOLECULE": "COc1ccc(CCNCC(O)COc2ccc(-c3ncco3)cc2)cc1OC (configuration not stated)",
    "REPORTED_MEASUREMENT": 2.6
  },
  {
    "MOLECULE": "NC1=NCC(CN2CCC(Cc3ccccc3)CC2)O1 (configuration not stated)",
    "REPORTED_MEASUREMENT": 2.38
  },
  {
    "MOLECULE": "OCC1OC(n2cnc3c(NCCCc4ccccc4)ncnc32)C(O)C1O (configuration not stated)",
    "REPORTED_MEASUREMENT": 1.92
  },
  {
    "MOLECULE": "Cc1cc(=O)oc2c1cc(C)c1occ(C)c12",
    "REPORTED_MEASUREMENT": 3.23
  },
  {
    "MOLECULE": "Nc1n[n+]([O-])c2ccccc2[n+]1[O-]",
    "REPORTED_MEASUREMENT": -0.3
  },
  {
    "MOLECULE": "CCC(=O)NCc1c(O)c(=O)cc(C)n1C",
    "REPORTED_MEASUREMENT": -0.72
  },
  {
    "MOLECULE": "O=[N+]([O-])c1ncn(C2OC(CO)C(O)C2O)n1 (configuration not stated)",
    "REPORTED_MEASUREMENT": -1.54
  },
  {
    "MOLECULE": "Cc1nc2c3c(c(C(=O)Nc4ccccc4)cn2c1C)CCC(c1ccccc1)O3 (configuration not stated)",
    "REPORTED_MEASUREMENT": 5.9
  },
  {
    "MOLECULE": "CC(=O)NC(CCCN(Cc1ccccc1)C(=O)N(C)N=O)C(=O)NCc1ccccc1 (configuration not stated)",
    "REPORTED_MEASUREMENT": 2
  },
  {
    "MOLECULE": "Clc1ccccc1N1CCN(CCCOn2nnc3ccccc32)CC1",
    "REPORTED_MEASUREMENT": 4.1
  },
  {
    "MOLECULE": "Cc1nc2ccccc2c(=O)n1CC(=O)N1CCOCC1",
    "REPORTED_MEASUREMENT": 0.36
  },
  {
    "MOLECULE": "COC(=O)C(C)=CC1C(C(=O)OCc2cccc(Cc3ccccc3)c2)C1(C)C (configuration not stated)",
    "REPORTED_MEASUREMENT": 6.41
  },
  {
    "MOLECULE": "CCNC(=O)Cn1cccc(O)c1=O",
    "REPORTED_MEASUREMENT": -0.74
  },
  {
    "MOLECULE": "COc1ccc(C2Cc3cc(Cl)ccc3N(CCN(C)C)C(=O)C2OC(C)=O)cc1 (configuration not stated)",
    "REPORTED_MEASUREMENT": 4.2
  },
  {
    "MOLECULE": "O=C(O)CCCON=C(c1ccccc1)c1ccncn1",
    "REPORTED_MEASUREMENT": 1.95
  },
  {
    "MOLECULE": "NC(Cc1c[nH]c2ccccc12)C(=O)NC(Cc1c[nH]c2ccccc12)C(=O)NC(Cc1c[nH]c2ccccc12)C(=O)O (stereo not drawn) (H-Trp-Trp-Trp-OH; configuration not given here)",
    "REPORTED_MEASUREMENT": 0.66
  },
  {
    "MOLECULE": "CC(C)CC(NC(=O)C(N)Cc1ccccc1)C(=O)O (stereo not drawn) (H-Phe-Leu-OH; configuration not given here)",
    "REPORTED_MEASUREMENT": -1.17
  },
  {
    "MOLECULE": "O=[N+]([O-])c1cccc(CNc2ncnc3nc[nH]c23)c1",
    "REPORTED_MEASUREMENT": 2.03
  },
  {
    "MOLECULE": "CCC(C)C(NC(=O)CNC(=O)C(C)NC(=O)CNC(=O)C(N)Cc1ccccc1)C(=O)O (configuration not stated) (H-FGAGI-OH; configuration not given here)",
    "REPORTED_MEASUREMENT": -1.87
  },
  {
    "MOLECULE": "O=C1NC(c2ccccc2)(c2ccccc2)C(=O)N1CO",
    "REPORTED_MEASUREMENT": 2.23
  },
  {
    "MOLECULE": "Nc1nnnn1-c1cccc(Cl)c1",
    "REPORTED_MEASUREMENT": 1.44
  }
]
